These measurements were taken from patent US20230349919A1.

molecular target: T1, human IL-4Rα (hIL-4Rα) monomeric protein (human, UniProt P24394 26-232, limits assumed); test: Biacore (SPR)
T1 construct: also called hIL-4Rα antigen; barcoded hIL-4Rα
reported_endpoint: Kd (nM)

[[record]]
binder = "Table 1 Line # 7 antibody (BM_Plasma_cell) (antibody, human IgG4, V domains shown, Cloned with human IgG4/human Igk constants for Kd; barcode counts are of the source cell's own IgG) VH: EVQLVESGGGLVQPGRSLRLSCAASGFTFDDYAMHWVRQAPGKGLEWVSGISWNGASIGYADSLKGRFTISRDNAKNSLYLQMNSLRSEDTALFYCARDYSSAWYGYFDYWGQGTLVTVSS VL: DIQMTQSPSSLSASVGDRVTITCRASQDISNYLAWYQQKPGKVPKLLIYAASTLQSGVPSRFSGSGSGTDFTLTISSLQPEDVATYYCQNYNSVPRTFGQGTKVEIK"
experimental_result = 15.5

[[record]]
binder = "Table 1 Line # 29 antibody (SP_B_cell) (antibody, V domains shown) VH: EVQLLESGGGLVQPGGSLRLSCAASGFTFSSYAMSWVRQAPGKGLEWVSAISGSGGSTYYADSVKGRFTISRDNSKNTLYLQMNSLRAEDTAIYYCARYGNWNYIWGQGTLVTVSS VL: DIQMTQSPSSVSASVGDRVTITCRASQGISSWLAWYQQKPGKAPKLLIYAASSLQSGVPSRFSGSGSGTDFTLTISSLQPEDFATYYCQQANSFPLTFGGGTKVEIK"
experimental_result = 54.8

[[record]]
binder = "Table 1 Line # 2 antibody (BM_Plasma_cell) (antibody, human IgG4, V domains shown, Cloned with human IgG4/human Igk constants for Kd; barcode counts are of the source cell's own IgG) VH: EVRLVESGGGLVQPGRSLRLSCAASGFTFDDYAMHWVRQAPGRGLEWVSGISWKGDALGYADSVKGRFTISRDNAKNSLYLQMSSLRAEDTALYYCAKDTGSYHYYYGLDVWGQGTTVAVSS VL: DIQMTQSPSSLSASVGDRVTITCRASQGIRTDLGWYQQKPGKAPKRLIYAASNLHGGVPSRFSGTGSGTDFTLTISSLQPEDFATFFCLQHYSYPLTFGGGTKVEIK"
experimental_result = 161

[[record]]
binder = "Table 1 Line # 11 antibody (BM_Plasma_cell) (antibody, human IgG4, V domains shown, Cloned with human IgG4/human Igk constants for Kd; barcode counts are of the source cell's own IgG) VH: EVQLVESGGGLVQPGRSLRLSCAASGFTFDDYAMHWVRQAPGKGLEWVSGISWNSGSIGYADSVKGRFTISRDNAKNSLYLQMNSLRAEDTALYYCARDYSSAWYGYFDSWGQGTLVTVSS VL: DIQMTQSPSSLSASVGDRVTITCRASQGINNYLAWYQQKPGKIPKLLIFTASTLQSGVPSRFSGSGSGTDFTLTINSLQPEDVATYYCQNYNSVPRTFGQGTKVEIK"
experimental_result = 27.5

[[record]]
binder = "Table 1 Line # 54 antibody (SP_Plasma_cell) (antibody, human IgG4, V domains shown, Cloned with human IgG4/human Igk constants for Kd; barcode counts are of the source cell's own IgG) VH: QVQLVQSGAEVKKPGASVKVSCKASGYTFTNYGISWVRQAPGQGLEWMGWISVYNGNTNYAQKLQGRVTMTTDTSTSTAYMEVRSLRSDDTAVYYCARGVNWNYVFDYWGQGTLVTVSS VL: DIQMTQSPSSLSASVGDRVTITCRASQGIRNDLGWYQQKPGKAPKRLIYVVSSLQSGVPSRFSGSGSGTEFTLTISSLQPEDFATYYCLQHNSYPWTFGQGTKVEIK"
experimental_result = 13.5

